# credit: the supplement of paper PMC9265050

Tested on: SW480
EXPERIMENT: drug sensitivity score (DSS, integrated dose-response area); higher = more sensitive (stronger viability reduction); extreme values may be limits of the assay
TEST SETTINGS: shRNA: SND1 shRNA1 (SND1 silenced)
PROPERTY: drug sensitivity score (DSS)
Give bare numbers, in DSS.

Reference set, count: 5
CN1CC[C@H](c2c(O)cc(O)c3c(=O)cc(-c4ccccc4Cl)oc23)[C@H](O)C1	21.9
O=C(Nc1ccncc1)C(=O)c1cn(Cc2ccc(Cl)cc2)c2ccccc12	8.8
COc1ncc(-c2ccc3nccc(-c4ccnnc4)c3c2)cc1NS(=O)(=O)c1ccc(F)cc1F	13.7
Nc1cc(C(F)(F)F)c(-c2cc(N3CCOCC3)nc(N3CCOCC3)n2)cn1	8.9
COc1cc2c(Nc3ccc(Cl)c(Cl)c3F)ncnc2cc1OC[C@@H]1C[C@@H]2CN(C)C[C@@H]2C1	2.1

I'm hoping you can list drug sensitivity score for every molecule here, please.
1. NC(=O)c1cccc2cn(-c3ccc([C@@H]4CCCNC4)cc3)nc12
2. C=CC[C@@H]1/C=C(\C)C[C@H](C)C[C@H](OC)[C@H]2O[C@@](O)(C(=O)C(=O)N3CCCC[C@H]3C(=O)O[C@H](/C(C)=C/[C@@H]3CC[C@@H](O)[C@H](OC)C3)[C@H](C)[C@@H](O)CC1=O)[C@H](C)C[C@@H]2OC
3. O=C1CCC(N2C(=O)c3ccccc3C2=O)C(=O)N1 (centres undefined) [Thalidomide]
4. O=C1CN2Cc3c(ccc(Cl)c3Cl)N=C2N1 [Anagrelide]

1. 3.3
2. 0
3. 0.5
4. 0

I'm hoping you can list drug sensitivity score for every molecule here, please.
1. COC1=CC(c2cc3ccccc3[nH]2)=N/C1=C\c1[nH]c(C)cc1C
2. C[C@]12O[C@H](C[C@]1(O)CO)n1c3ccccc3c3c4c(c5c6ccccc6n2c5c31)CNC4=O
3. O=C(Nc1nc2cccc(-c3ccc(CN4CCS(=O)(=O)CC4)cc3)n2n1)C1CC1
4. O=C(O)CNC(=O)c1c(O)c2ccccc2n(Cc2ccccc2)c1=O
5. Cc1nc(-c2cn3c(n2)-c2ccc(-c4cnn(C(C)(C)C(N)=O)c4)cc2OCC3)n(C(C)C)n1

2.5
6.8
1.5
5
0

I'm hoping you can list drug sensitivity score for every molecule here, please.
1. C=CC(=O)Nc1cc(Nc2nccc(-c3cn(C)c4ccccc34)n2)c(OC)cc1N(C)CCN(C)C
2. O=C(/C=C/c1cccc(S(=O)(=O)Nc2ccccc2)c1)NO
3. Clc1ccc(C(c2ccccc2Cl)C(Cl)Cl)cc1 (centres undefined)

1: 8.5; 2: 16.4; 3: 0

I'm hoping you can list drug sensitivity score for every molecule here, please.
1. CN1CCN(c2cc(C(=O)Nc3ccc4c(c3)-c3c(c(C(N)=O)nn3-c3ccc(F)cc3)CC4)c(Cl)cn2)CC1
2. CN(C)/N=N/c1[nH]cnc1C(N)=O
3. O=C(NOCCO)c1ccc2cncn2c1Nc1ccc(I)cc1F
4. Cc1cccc(-c2[nH]c(CNc3ccccc3F)nc2-c2ccc3ncnn3c2)n1
5. CCCc1cc(C)[nH]c(=O)c1CNC(=O)c1cc(-c2ccnc(N3CCN(C)CC3)c2)cc2c1cnn2C(C)C
6. CC(C)C(=O)Nc1ccc([N+](=O)[O-])c(C(F)(F)F)c1 [Flutamide]
7. COCC[n+]1c2c(n(Cc3cnccn3)c1C)C(=O)c1ccccc1C2=O

1: 5.3; 2: 0; 3: 13.9; 4: 0; 5: 0; 6: 0; 7: 15.5

---

Test system: SW480
EXPERIMENT: drug sensitivity score (DSS, integrated dose-response area); higher = more sensitive (stronger viability reduction); extreme values may be limits of the assay
TEST SETTINGS: shRNA: SND1 shRNA1 (SND1 silenced)
just bin them by drug sensitivity score: low band: < 0.7 DSS; middle band: ≥ 0.7 DSS and < 8 DSS; high band: ≥ 8 DSS

A selection of reference data follows.
Cn1ncc(Cl)c1-c1cc(C(=O)N[C@H](CN)Cc2ccc(F)c(F)c2)oc1Cl	low band
NC1(c2ccc(-c3nc4ccn5c(=O)[nH]nc5c4cc3-c3ccccc3)cc2)CCC1	middle band
COc1cc(Nc2ncc(F)c(Nc3ccc4c(n3)N(COP(=O)(O)O)C(=O)C(C)(C)O4)n2)cc(OC)c1OC	middle band
Nc1ccn([C@@H]2O[C@H](CO)[C@@H](O)C2(F)F)c(=O)n1	high band
N#Cc1c(Oc2ccc(F)c(NC(=O)Cc3cccc(C(F)(F)F)c3)c2)ccc2nc(NC(=O)C3CC3)sc12	middle band
CN1CC[C@@H](NC(=O)Nc2ccc(C#N)cc2)C[C@@H]1c1nc2ccccc2[nH]1	low band
Cc1[nH]c(/C=C2\C(=O)Nc3ccccc32)c(C)c1CCC(=O)O [Orantinib]	low band
CC/C(=C(\c1ccccc1)c1ccc(OCCN(C)C)cc1)c1ccccc1	middle band
Cn1c(CCCC(=O)O)nc2cc(N(CCCl)CCCl)ccc21	middle band
C=CCN(/C=C1/C(=O)O[C@H](COC)[C@@]2(C)C1=C(O)C(=O)C1=C2[C@H](OC(C)=O)C[C@]2(C)C(=O)CC[C@@H]12)CC=C	low band

Which class is correct for the following compound? CC(C)(C)NC(=O)[C@H]1CC[C@H]2[C@@H]3CC[C@H]4NC(=O)C=C[C@]4(C)[C@H]3CC[C@]12C [Finasteride]
low band

---

Test system: SW480
EXPERIMENT: drug sensitivity score (DSS, integrated dose-response area); higher = more sensitive (stronger viability reduction); extreme values may be limits of the assay
TEST SETTINGS: shRNA: SND1 shRNA1 (SND1 silenced)
just bin them by drug sensitivity score: low group: < 0.5 DSS; middle group: ≥ 0.5 DSS and < 5 DSS; high group: ≥ 5 DSS

CS(=O)(=O)c1ccc(-c2cnc(N)c(C(=O)Nc3ccccc3)n2)cc1 [VE-821]	low group
NC(=O)N1CCC(CC(=O)N2CCC([C@H]3c4ncc(Br)cc4CCc4cc(Cl)cc(Br)c43)CC2)CC1 [Lonafarnib]	high group
C[C@]1(O)C[C@@H](c2nc(-c3ccc4ccc(-c5ccccc5)nc4c3)c3c(N)nccn32)C1 [Linsitinib]	low group
CCc1nc(-c2cccc(C)c2)c(-c2ccnc(NC(=O)c3ccccc3)c2)s1 [TAK-715]	middle group
COc1cc2c(Oc3ccc4[nH]c(C)cc4c3F)ncnc2cc1OCCCN1CCCC1 [Cediranib]	high group
Cn1c(=O)c(F)c(Nc2ccc(I)cc2F)c2c(=O)n(C[C@@H](O)CO)cnc21 [TAK-733]	high group
C=CCc1cccc(/C=N/NC(=O)CN2CCN(Cc3ccccc3)CC2)c1O [PAC-1]	high group
CNCc1ccc(-c2[nH]c3cc(F)cc4c3c2CCNC4=O)cc1 [Rucaparib]	low group
O[C@H]1CC[C@H](Nc2ncc3nc(Nc4c(F)cc(F)cc4F)n([C@H]4CCOC4)c3n2)CC1 [Tanzisertib]	middle group
COc1cc2nccc(Oc3ccc(NC(=O)Nc4cc(C)on4)c(Cl)c3)c2cc1OC [Tivozanib]	middle group

Which class is correct for the following compound? O=C(Nc1cccc(C(F)(F)F)c1)Nc1cc(S(=O)(=O)NC2CC2)ccc1-c1ccsc1 [AGI-6780]
low group

Which class is correct for the following compound? C[C@@H](Oc1cc(-c2cnn(C3CCNCC3)c2)cnc1N)c1c(Cl)ccc(F)c1Cl [Crizotinib]
middle group

Which class is correct for the following compound? CN[C@@H](C)C(=O)N[C@H](C(=O)N1CCC[C@H]1c1nc(C(=O)c2ccc(F)cc2)cs1)C1CCCCC1 [LCL161]
low group

Which class is correct for the following compound? CNC(=O)c1ccc(C)c(-n2c(C)cc(OCc3ccc(F)cc3F)c(Br)c2=O)c1
low group

Which class is correct for the following compound? CC1CCC(n2c3cnccc3c3cnc(Nc4ccc5c(n4)CCN(C(=O)CO)C5)nc32)CC1 (centres undefined) [AMG-925]
middle group

Which class is correct for the following compound? C#Cc1cccc(Nc2ncnc3cc(OCCOC)c(OCCOC)cc23)c1 [Erlotinib]
middle group

Which class is correct for the following compound? Cn1cncc1[C@@](N)(c1ccc(Cl)cc1)c1ccc2c(c1)c(-c1cccc(Cl)c1)cc(=O)n2C [Tipifarnib]
high group

---

Test system: SW480
EXPERIMENT: drug sensitivity score (DSS, integrated dose-response area); higher = more sensitive (stronger viability reduction); extreme values may be limits of the assay
TEST SETTINGS: shRNA: SND1 shRNA1 (SND1 silenced)
Could you please report measured drug sensitivity score for the items listed next?
Numbers only, in DSS.

Reference set, count: 2
CNc1nc(Nc2cn(C(C)(C)C#N)nc2C)ncc1C(F)(F)F	1.6
CC[C@@]1(O)C(=O)OCc2c1cc1n(c2=O)Cc2cc3c(CN(C)C)c(O)ccc3nc2-1	11.3

I'm hoping you can list drug sensitivity score for every compound here, please.
1. COc1cc(N2CCN(C)CC2)ccc1Nc1nccc(-c2cn(C)c3cnccc23)n1
2. CCc1c2c(nc3ccc(O)cc13)-c1cc3c(c(=O)n1C2)COC(=O)[C@]3(O)CC
3. Cc1cc(-c2ncc(-c3cccnc3)cc2/C=C/c2ccccc2)cnc1-c1cccnc1
4. N#CC1(c2ccc(NC(=O)c3cccnc3NCc3ccncc3)cc2)CCCC1
5. Cn1ncnc1[C@H]1c2n[nH]c(=O)c3cc(F)cc(c23)N[C@@H]1c1ccc(F)cc1

6.8
21.2
4.1
0
5.8

Query the reported drug sensitivity score for SW480; item: COc1cc2nccc(Oc3ccc(NC(=O)C4(C(=O)Nc5ccc(F)cc5)CC4)cc3)c2cc1OC [Cabozantinib]
0
